Origin of the recorded values: patent US9067943B2

Molecular target: human CB1 receptors (Homo sapiens)
Construct: expressed in transfected cells; host or cells: CHO cells
Sequence (P21554 whole entry): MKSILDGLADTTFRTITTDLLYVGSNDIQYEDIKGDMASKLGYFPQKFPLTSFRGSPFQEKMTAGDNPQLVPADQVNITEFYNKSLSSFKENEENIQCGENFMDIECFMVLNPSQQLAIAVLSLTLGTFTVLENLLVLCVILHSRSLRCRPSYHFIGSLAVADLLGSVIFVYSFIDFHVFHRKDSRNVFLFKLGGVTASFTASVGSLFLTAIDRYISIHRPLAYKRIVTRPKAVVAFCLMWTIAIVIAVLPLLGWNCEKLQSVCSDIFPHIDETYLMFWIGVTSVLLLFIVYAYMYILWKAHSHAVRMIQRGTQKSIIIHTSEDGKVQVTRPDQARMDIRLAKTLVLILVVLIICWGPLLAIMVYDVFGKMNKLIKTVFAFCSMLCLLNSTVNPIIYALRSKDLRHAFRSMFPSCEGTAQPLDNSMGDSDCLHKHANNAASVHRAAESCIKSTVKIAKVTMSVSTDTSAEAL
Assay: cAMP assay
Format: cell-based
pEC50: −log10 of the molar value.
Quantity Measured: pEC50

Reference set (5 entries):
compound=CC(C)(C)c1nc(N2CCC(F)(F)C2)c2nn(Cc3ccc(F)cc3Cl)nc2n1 value_measured="< 5.00"
compound=Cc1nonc1Cn1nc2nc(C(C)(C)C)nc(N3CC(F)(F)C(F)(F)C3)c2n1 value_measured="< 5.00"
compound=C[C@H](Oc1nc(N2CCC(F)(F)C2)c2nn(Cc3nnnn3C3CC3)nc2n1)C(F)(F)F value_measured="< 5.00"
compound=Cn1nnnc1Cn1nc2nc(NC(C)(C)C)nc(N3CC[C@H](O)C3)c2n1 value_measured="< 5.00"
compound=CC1(Cn2nc3nc(C(C)(C)C)nc(N4CCC(F)(F)C4)c3n2)COC1 value_measured="< 5.00"

Query string: # query: pEC50 | item CC(C)(C)c1nc(N2CCC(F)(F)C2)c2nn(CC(=O)c3cccc(Cl)c3)nc2n1 | system: human CB1 receptors (Homo sapiens)
Result string: < 5.00

Query string: Please do the same for CC(C)(C)c1nc(N2CC[C@H](O)C2)c2nn(Cc3ccccc3S(C)(=O)=O)nc2n1 as well.
Result string: < 5.00

Query string: Param item: CC(C)(C)c1nc(N2CC[C@](C)(O)C2)c2nn(Cc3ccccc3C(F)(F)F)nc2n1
Result string: 6.40
